Origin of values: ChEMBL document CHEMBL1133118

- tgt: Adenosine receptor A3 (Homo sapiens, UniProt P0DMS8)
- Sequence (P0DMS8 whole entry): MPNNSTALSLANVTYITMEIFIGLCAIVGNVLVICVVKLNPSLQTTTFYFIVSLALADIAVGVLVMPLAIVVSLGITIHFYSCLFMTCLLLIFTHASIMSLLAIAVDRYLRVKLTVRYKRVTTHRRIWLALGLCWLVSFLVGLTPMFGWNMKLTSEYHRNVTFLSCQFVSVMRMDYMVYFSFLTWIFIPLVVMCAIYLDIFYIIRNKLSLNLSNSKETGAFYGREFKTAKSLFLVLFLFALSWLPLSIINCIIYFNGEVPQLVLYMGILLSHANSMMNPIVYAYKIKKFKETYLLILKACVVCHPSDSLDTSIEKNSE
- protocol summary: Inhibition of cAMP accumulation in CHO cells expressing human adenosine A3 receptor; range 1.1-3.8
- Format: functional, cell-based
observed property: pIC50
Give only the number. pIC50 is defined as minus log10 of concentration in molar units.

Please report the recorded pIC50 for COc1ccc(NC(=O)Nc2nc3ccc(Cl)cc3c3nc(-c4ccco4)nn23)cc1 .
8.70

* * *

- tgt: Adenosine receptor A3 (Homo sapiens)
- protocol summary: Displacement of [3H]MRE3008-F20 from human adenosine A3 receptor expressed in CHO cells; range 691-952
- Assay type: cell-based
observed property: Ki (nM)
Could you give me the number in nM? Just the number is fine.

GET /values?readout=Ki&item= CC(C)=CCn1cc2c(nc(N)n3nc(-c4ccco4)nc23)n1
811

* * *

- tgt: Adenosine receptor A2b (Homo sapiens, UniProt P29275)
- Sequence (P29275 whole entry): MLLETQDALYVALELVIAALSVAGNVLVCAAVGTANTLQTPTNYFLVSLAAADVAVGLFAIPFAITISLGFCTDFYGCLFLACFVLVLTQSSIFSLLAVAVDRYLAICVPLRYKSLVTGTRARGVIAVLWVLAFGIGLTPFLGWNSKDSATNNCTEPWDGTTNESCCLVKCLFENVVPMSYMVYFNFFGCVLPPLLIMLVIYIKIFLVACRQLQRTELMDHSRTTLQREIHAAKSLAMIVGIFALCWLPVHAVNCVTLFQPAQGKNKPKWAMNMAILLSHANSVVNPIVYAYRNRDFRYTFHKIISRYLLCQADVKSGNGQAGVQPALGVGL
- protocol summary: Displacement of [3H]DPCPX from Adenosine A2b receptor expressed in […]; range 226-301
- Format: cell-based
observed property: pKi
Expect pKi as a plain number equal to -log10 of the molar concentration.

What pKi appears in the records for this compound with Adenosine receptor A2b (Homo sapiens, UniProt P29275)? COc1ccc(NC(=O)Nc2nc3nn(C)cc3c3nc(-c4ccco4)nn23)cc1
6.58

* * *

- tgt: Adenosine receptor A2b (Homo sapiens)
- protocol summary: Displacement of [3H]DPCPX from Adenosine A2b receptor expressed in […]; range 188-320
- Assay type: cell-based
observed property: Ki
Record the result as a number with its unit.

Quick one: Ki of CCn1cc2c(nc(NC(=O)Nc3ccc(OC)cc3)n3nc(-c4ccco4)nc23)n1 ?
245 nM

* * *

- tgt: Adenosine receptor A2a (Homo sapiens, UniProt P29274)
- Sequence (P29274 whole entry): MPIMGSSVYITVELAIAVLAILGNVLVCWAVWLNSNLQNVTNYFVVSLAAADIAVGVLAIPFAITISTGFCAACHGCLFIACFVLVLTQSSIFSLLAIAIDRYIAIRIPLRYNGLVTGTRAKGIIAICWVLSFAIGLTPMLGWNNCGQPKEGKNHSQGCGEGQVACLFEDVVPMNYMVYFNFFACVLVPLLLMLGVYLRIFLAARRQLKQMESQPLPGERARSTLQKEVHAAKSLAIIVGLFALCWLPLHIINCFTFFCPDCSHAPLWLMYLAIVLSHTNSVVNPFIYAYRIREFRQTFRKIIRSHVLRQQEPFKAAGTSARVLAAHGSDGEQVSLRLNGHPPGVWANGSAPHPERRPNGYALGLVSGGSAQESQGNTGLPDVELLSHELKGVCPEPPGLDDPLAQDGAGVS
- protocol summary: Displacement of [3H]-SCH- 58261 from human adenosine A2A receptor expressed in CHO cells; range 218-283
- Assay type: cell-based
observed property: Ki (nM)
Output spec: scalar in nM, unitless text.

Need Ki of O=C(Nc1cccc(Cl)c1)Nc1nc2n[nH]cc2c2nc(-c3ccco3)nn12 , thanks.
248

* * *

- tgt: Adenosine receptor A2a (Homo sapiens)
- protocol summary: Displacement of [3H]-SCH- 58261 from human adenosine A2A receptor expressed in CHO cells; range 8.7-10.5
- Type: cell-based
observed property: Ki
// return the numeric value with its unit appended

What value of Ki has been reported for the following compound? O=C(Nc1cccc(Cl)c1)Nc1nc2ccc(Cl)cc2c2nc(-c3ccco3)nn12
9.5 nM

* * *

- tgt: UniProt P29274
- protocol summary: Displacement of [3H]-SCH- 58261 from human adenosine A2A receptor expressed in CHO cells; range 17-24
- Type: cell-based
observed property: Ki (nM)
Give the value, in units of nM, as a plain number.

Using the record for Nc1nc2n[nH]cc2c2nc(-c3ccco3)nn12 , report its Ki.
20

* * *

- tgt: Adenosine receptor A3 (Homo sapiens, UniProt P0DMS8)
- protocol summary: Displacement of [3H]MRE3008-F20 from human adenosine A3 receptor expressed in CHO cells; range 664-738
- Assay type: cell-based
observed property: Ki (nM)
The response must be a number in nM with no trailing unit.

Tell me the measured Ki of CC(C)CCn1cc2c(nc(N)n3nc(-c4ccco4)nc23)n1 , please.
700

* * *

Give measured IC50 for each item. Keep answers brief.
- tgt: Adenosine receptor A3 (Homo sapiens, UniProt P0DMS8)
- Sequence (P0DMS8 whole entry): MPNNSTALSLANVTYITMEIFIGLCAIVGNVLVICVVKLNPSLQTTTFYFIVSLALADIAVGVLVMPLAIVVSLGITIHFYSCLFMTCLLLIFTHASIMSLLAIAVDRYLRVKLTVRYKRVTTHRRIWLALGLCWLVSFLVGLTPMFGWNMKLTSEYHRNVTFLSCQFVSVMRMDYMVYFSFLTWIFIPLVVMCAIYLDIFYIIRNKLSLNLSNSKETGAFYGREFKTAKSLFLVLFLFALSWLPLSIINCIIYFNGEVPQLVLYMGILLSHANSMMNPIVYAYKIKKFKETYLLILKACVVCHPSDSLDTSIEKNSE
- protocol summary: Inhibition of cAMP accumulation in CHO cells expressing human A3 adenosine receptor
- Type: functional, cell-based
# value in nM; strip the unit string

Look up IC50 for this compound: O=C(Nc1cccc(Cl)c1)Nc1nc2n[nH]cc2c2nc(-c3ccco3)nn12
5.3

Another compound: COc1ccc(NC(=O)Nc2nc3n[nH]cc3c3nc(-c4ccco4)nn23)cc1
1.8

* * *

- tgt: Adenosine receptor A1 (Homo sapiens, UniProt P30542)
- Sequence (P30542 whole entry): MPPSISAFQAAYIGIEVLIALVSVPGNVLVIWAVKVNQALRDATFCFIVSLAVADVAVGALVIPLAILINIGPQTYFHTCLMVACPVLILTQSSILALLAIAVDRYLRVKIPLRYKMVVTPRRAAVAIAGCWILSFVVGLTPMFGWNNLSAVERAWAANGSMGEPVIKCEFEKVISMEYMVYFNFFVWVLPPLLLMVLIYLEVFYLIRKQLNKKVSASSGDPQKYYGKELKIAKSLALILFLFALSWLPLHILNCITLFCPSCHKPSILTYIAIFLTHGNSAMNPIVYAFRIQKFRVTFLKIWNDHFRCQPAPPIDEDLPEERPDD
- protocol summary: Displacement of [3H]DPCPX from human adenosine A1 receptor expressed in CHO cells; range 170-358
- Format: cell-based
observed property: Ki (nM)
Write down the numeric answer in nM and omit the unit.

Quick one: Ki for Nc1nc2nn(CCc3cc(Br)c(Br)cc3Br)cc2c2nc(-c3ccco3)nn12 ?
247

* * *

- tgt: Adenosine receptor A3 (Homo sapiens) (UniProt P0DMS8)
- protocol summary: Percentage of blockade by 1 uM of the inhibition by 100 nM IB-MECA-inhibited cAMP accumulation in CHO cells expressing human adenosine A3 receptor.
- Assay type: functional, cell-based
Output schema: class label derived from inhibition. Mapping: 0 = under 20%, 1 = from 20% up to 40%, 2 = 40% and over

Kindly state the category for this compound: O=C(Nc1cccc(Cl)c1)Nc1nc2nn(CCc3ccccc3)cc2c2nc(-c3ccco3)nn12
2

Please give the result for Nc1nc2nn(CCc3ccccc3)cc2c2nc(-c3ccco3)nn12 too.
1

# repeat for COc1ccc(NC(=O)Nc2nc3nn(CCc4cccc5ccccc45)cc3c3nc(-c4ccco4)nn23)cc1
2

Another compound: CCCn1cc2c(nc(N)n3nc(-c4ccco4)nc23)n1
1

Thanks! And O=C(Nc1cccc(Cl)c1)Nc1nc2nn(CCc3cc(Br)c(Br)cc3Br)cc2c2nc(-c3ccco3)nn12 ?
1

Thanks! And Nc1nc2nn(CCc3cc(Br)c(Br)cc3Br)cc2c2nc(-c3ccco3)nn12 ?
0

Okay, and O=C(Nc1cccc(Cl)c1)Nc1nc2ccc(Cl)cc2c2nc(-c3ccco3)nn12 ?
2

Now try COc1ccc(NC(=O)Nc2nc3nn(CCc4cc(Br)c(Br)cc4Br)cc3c3nc(-c4ccco4)nn23)cc1 .
2

What do we get for Nc1nc2ccc(Cl)cc2c2nc(-c3ccco3)nn12 ?
1

Repeat with Nc1nc2n[nH]cc2c2nc(-c3ccco3)nn12
1

Request: CCCCn1cc2c(nc(N)n3nc(-c4ccco4)nc23)n1
0

Same thing, different compound: Nc1nc2nn(CCc3cccc4ccccc34)cc2c2nc(-c3ccco3)nn12
0

// repeat for CCn1cc2c(nc(N)n3nc(-c4ccco4)nc23)n1 and report
1

And for CC(C)(C)n1cc2c(nc(N)n3nc(-c4ccco4)nc23)n1 ?
0

CC(C)=CCn1cc2c(nc(N)n3nc(-c4ccco4)nc23)n1 ?
0

Can you handle Cn1cc2c(nc(N)n3nc(-c4ccco4)nc23)n1 next?
1

Nc1nc2nn(CCCc3ccccc3)cc2c2nc(-c3ccco3)nn12 , same question.
0

Same read-out for COc1ccc(NC(=O)Nc2nc3nn(CCCc4ccccc4)cc3c3nc(-c4ccco4)nn23)cc1 ?
2

* * *

- tgt: Adenosine receptor A3 (Homo sapiens)
- protocol summary: biochemical
- Description: Displacement of [3H]MRE3008-F20 from human adenosine A3 receptor expressed in CHO cells; range 76-95
observed property: Ki (nM)
Write the answer as a number in nM, unit excluded.

Sample Nc1nc2ccc(Cl)cc2c2nc(-c3ccco3)nn12 — what was its Ki?
85

* * *

- tgt: Adenosine receptors; A1 & A3 (Homo sapiens) (UniProt P30542+P0DMS8)
- protocol summary: Ratio of binding affinity of human A1 receptor to that of human A3 receptor
- Format: protein assay
observed property: Ratio
Respond using a number only.

Return reported Ratio; argument: CCCCn1cc2c(nc(NC(=O)Nc3cccc(Cl)c3)n3nc(-c4ccco4)nc23)n1
408

How about this molecule: COc1ccc(NC(=O)Nc2nc3nn(C)cc3c3nc(-c4ccco4)nn23)cc1
5480

Also COc1ccc(NC(=O)Nc2nc3nn(C(C)(C)C)cc3c3nc(-c4ccco4)nn23)cc1 , if possible.
995

Can you check O=C(Nc1cccc(Cl)c1)Nc1nc2nn(CCc3cccc4ccccc34)cc2c2nc(-c3ccco3)nn12 next?
62

Another molecule: COc1ccc(NC(=O)Nc2nc3nn(CCc4cccc5ccccc45)cc3c3nc(-c4ccco4)nn23)cc1
154

For C=CCn1cc2c(nc(NC(=O)Nc3ccc(OC)cc3)n3nc(-c4ccco4)nc23)n1 then?
3190

Try this molecule next: O=C(Nc1cccc(Cl)c1)Nc1nc2nn(CCc3ccccc3)cc2c2nc(-c3ccco3)nn12
6.3

And for CCCn1cc2c(nc(N)n3nc(-c4ccco4)nc23)n1 ?
0.024

Consider next the molecule CC(C)CCn1cc2c(nc(N)n3nc(-c4ccco4)nc23)n1 in the same way.
0.002
